Target: JAK1 (Homo sapiens (Human))
Sequence (P23458 whole entry): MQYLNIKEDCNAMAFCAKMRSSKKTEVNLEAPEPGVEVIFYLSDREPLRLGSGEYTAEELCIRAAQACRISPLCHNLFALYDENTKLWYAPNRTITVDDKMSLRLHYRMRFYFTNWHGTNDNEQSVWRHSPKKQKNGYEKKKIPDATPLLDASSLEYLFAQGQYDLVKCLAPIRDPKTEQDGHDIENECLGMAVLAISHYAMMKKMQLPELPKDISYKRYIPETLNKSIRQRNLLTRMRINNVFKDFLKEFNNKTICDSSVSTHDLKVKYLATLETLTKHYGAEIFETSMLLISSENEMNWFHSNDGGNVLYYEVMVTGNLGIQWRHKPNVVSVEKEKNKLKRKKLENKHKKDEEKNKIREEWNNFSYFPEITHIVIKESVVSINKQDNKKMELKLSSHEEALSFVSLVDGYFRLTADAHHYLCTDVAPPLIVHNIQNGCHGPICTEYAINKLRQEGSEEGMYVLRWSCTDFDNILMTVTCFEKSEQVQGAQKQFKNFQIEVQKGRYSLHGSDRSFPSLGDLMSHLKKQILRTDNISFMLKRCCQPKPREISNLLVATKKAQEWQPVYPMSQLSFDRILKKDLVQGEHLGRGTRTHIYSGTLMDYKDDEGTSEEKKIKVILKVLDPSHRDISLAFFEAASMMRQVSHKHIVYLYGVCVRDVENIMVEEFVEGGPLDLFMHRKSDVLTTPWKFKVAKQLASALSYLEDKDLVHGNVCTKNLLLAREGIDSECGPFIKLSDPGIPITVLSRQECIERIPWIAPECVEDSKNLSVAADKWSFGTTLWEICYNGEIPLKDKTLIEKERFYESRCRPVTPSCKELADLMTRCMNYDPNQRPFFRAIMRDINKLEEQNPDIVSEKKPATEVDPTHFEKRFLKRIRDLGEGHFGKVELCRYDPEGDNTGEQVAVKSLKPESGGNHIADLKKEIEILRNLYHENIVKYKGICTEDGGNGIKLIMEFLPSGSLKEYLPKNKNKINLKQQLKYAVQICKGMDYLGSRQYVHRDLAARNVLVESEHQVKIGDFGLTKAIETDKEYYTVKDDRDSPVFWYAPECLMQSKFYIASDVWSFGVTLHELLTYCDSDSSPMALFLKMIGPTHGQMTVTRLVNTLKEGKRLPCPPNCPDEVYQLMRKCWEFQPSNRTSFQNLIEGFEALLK
Test: JAK1 LANCE Ultra kinase assay
Format: biochemical
Conditions: ratio of IC50 JAK2 to IC50 JAK1
measured_attribute: JAK2/JAK1

1. COCCOc1nsc(NC(=O)N2C[C@H]3C[C@H](Nc4c(C#N)cnc5[nH]ccc45)C[C@H]3C2)n1 | 10.06
2. COCC1CCN(S(=O)(=O)C[C@H]2CC[C@H](N(C)c3c(C#N)cnc4[nH]ccc34)CC2)C1 (stereo partly shown) | 17.76
3. COCCOc1nsc(NC(=O)N2C[C@H]3C[C@H](N(C)c4c(C#N)cnc5[nH]ccc45)C[C@H]3C2)n1 | 4.49
4. CN(c1c(C#N)cnc2[nH]ccc12)[C@H]1C[C@@H]2CN(C(=O)Nc3nc(C4CC4)no3)C[C@@H]2C1 | 2.60
5. CC[C@@H]1CN(C(=O)NCC(C)(C)C)C[C@@H]1Nc1c(C#N)cnc2[nH]ccc12 (relative stereo) | 20.57
6. CC[C@@H]1CN(C(=O)NC(C)C(C)C)C[C@@H]1Nc1c(C#N)cnc2[nH]ccc12 (relative stereo) | 2.86
7. CN(c1c(C#N)cnc2[nH]ccc12)[C@H]1C[C@@H]2CN(S(=O)(=O)c3cccc(C(F)(F)F)c3)C[C@@H]2C1 | 2.40
